System: L1210 leukemia ip in BDF1 mice, survival T/C
Test: NCI In Vivo Anticancer Drug Screen. Data for tumor model L1210 Leukemia (intraperitoneal) in B6D2F1 (BDF1) mice
Conditions: endpoint: mean survival time; dose: 200.0 mg/kg/injection; schedule: Q04DX003 (ip); vehicle: Klucel (hydroxypropylcellulose) (HPC); higher = longer survival
Toxic doses and inconclusive results are not listed.
measured parameter: T/C

molecule	study target	T/C
CC(C)CCC[C@@H](C)[C@H]1CC[C@H]2[C@@H]3CC=C4C[C@@H](O)CC[C@]4(C)[C@H]3CC[C@]12C	L1210 leukemia ip in BDF1 mice, survival T/C	89 % of control
C=COC1CCCCC1	L1210 leukemia ip in BDF1 mice, survival T/C	90 % of control
O=C(O)C(Cl)c1ccccc1 (stereo unspecified)	L1210 leukemia ip in BDF1 mice, survival T/C	93 % of control

What the record says about Nc1ccc(C(=O)O)c(Cl)c1 : T/C is 99 % of control

Item: CCCCCCCCCCCCCCCCS(=O)(=O)N/N=C(/c1ccc(N)cc1Cl)N1CCCCC1 | T/C: 94 % of control

Sample Cc1c(Cl)cccc1NC(=O)COc1ccc(Cl)cc1 ; T/C observed: 91 % of control
